assay.notes: Drug uptake in C57/B1 mouse brain at 20 umol/kg, iv at 0.5 hrs
Assay type: ADME, organism-based
condition.info: read-out: Drug uptake
parameter: concentration at 0.5 h (nM)
Unit nM implied. Number only.

Consider the compound shown here: CC(=O)N[C@@H](Cc1ccccc1)[C@H](O)CNC1CC(C)(C)Cc2nn(CC(C)(C)C)cc21 (mixture of isomers) What is its recorded concentration at 0.5 h?
200

###

assay.notes: Apparent permeability across human Caco2 cells
Format: ADME, cell-based
condition.info: Caco-2
Catalogue of Papp readings, one per entry.
The response must be a number in ×10⁻⁶ cm/s with no trailing unit.

Use these answered entries as a reference point.
{"columns": ["molecule", "Papp / ×10⁻⁶ cm/s"],
 "data": [
  ["CC(=O)N[C@@H](Cc1ccccc1)[C@H](O)CN[C@H]1CC(C)(C)Cn2nc(CC(C)(C)C)cc21", 5],
  ["CC(=O)N[C@@H](Cc1ccccc1)[C@H](O)CNC1CC(C)(C)Oc2sc(CC(C)(C)C)cc21 (mixture of isomers)", 5.6],
  ["CC(=O)N[C@@H](Cc1ccccc1)[C@H](O)CN[C@H]1CC(C)(C)Oc2ccc(CC(C)(C)C)cc21", 21],
  ["CC(=O)N[C@@H](Cc1ccccc1)[C@H](O)CNC1CC(C)(C)Cc2nn(CC(C)(C)C)cc21 (mixture of isomers)", 1.5]
]}

Next item in the queue.
Bench note: what Papp did "CC(=O)N[C@@H](Cc1ccccc1)[C@H](O)CN[C@H]1CC(C)(C)Cc2nn(CC(C)C)cc21" show?
1.6
